System: Yap1 mRNA
assay: Antisense inhibition of human Yap1 in A-431 cells by cEt gapmers, single dose (Example 1, RTS4814)
Assay type: cell-based
assay setup: A-431 cells, 5,000 cells per well, free uptake, 2,000 nM modified oligonucleotide, approx. 48 hours, RTS4814, normalized to RIBOGREEN; Table 3
Strand notation (5' to 3'): a small letter for the sugar, then the base; units joined by * are phosphorothioate-linked, units joined directly phosphodiester-linked; [ ] holds rarer units or linkages, { } end groups; capitals alone tell only the bases. k = constrained ethyl (cEt); [5mC] = 5-methylcytosine; d = 2'-deoxy (DNA)
Reported YAP1 (% UTC) by item:
reported endpoint: YAP1 (% UTC)

>>> df
                                   substance  assay_system  reported_endpoint  recorded_value
 0  715459 (antisense k[5mC]*kT*k[5mC]*dG*dA*dG*dA*dG*dT*dG*dA*dT*dA*kG*kG*kT) [Compound 715459]     Yap1 mRNA       YAP1 (% UTC)        93 % UTC
 1  715522 (kA*k[5mC]*kT*d[5mC]*dT*dT*d[5mC]*dT*dT*dT*d[5mC]*d[5mC]*dA*k[5mC]*kT*k[5mC]; antisense) [Compound 715522]     Yap1 mRNA       YAP1 (% UTC)        87 % UTC
 2  715561 (k[5mC]*kA*k[5mC]*dA*dA*d[5mC]*dT*d[5mC]*dA*dG*dA*d[5mC]*dA*kG*kG*kG; antisense) [Compound 715561]     Yap1 mRNA       YAP1 (% UTC)        69 % UTC
 3  715588 (kA*kG*k[5mC]*dA*dG*d[5mC]*dT*dA*dA*d[5mC]*dA*dG*d[5mC]*kT*kT*kG; antisense) [Compound 715588]     Yap1 mRNA       YAP1 (% UTC)        96 % UTC
 4  715426 (kA*kT*k[5mC]*d[5mC]*dA*dT*d[5mC]*dA*dG*dG*dA*dA*dG*kA*kG*kG; antisense) [Compound 715426]     Yap1 mRNA       YAP1 (% UTC)        80 % UTC
 5  715618 (antisense kA*kT*kA*dA*dG*dA*d[5mC]*dG*dG*dA*dT*dA*dA*kA*kA*kA) [Compound 715618]     Yap1 mRNA       YAP1 (% UTC)       101 % UTC
 6  715429 (k[5mC]*k[5mC]*kT*dG*dA*dG*dT*d[5mC]*dA*dT*dG*dG*d[5mC]*kT*kT*kG; antisense) [Compound 715429]     Yap1 mRNA       YAP1 (% UTC)        62 % UTC
 7  715447 (antisense k[5mC]*kA*kA*dT*dT*d[5mC]*d[5mC]*dT*dG*dA*dG*dA*d[5mC]*kA*kT*k[5mC]) [Compound 715447]     Yap1 mRNA       YAP1 (% UTC)        81 % UTC
 8  715435 (antisense kG*kG*kT*d[5mC]*dT*dT*dG*dT*dT*d[5mC]*dT*dT*dA*kT*kG*kG) [Compound 715435]     Yap1 mRNA       YAP1 (% UTC)        36 % UTC
 9  715582 (kG*kT*k[5mC]*dA*dA*dG*d[5mC]*d[5mC]*dT*dG*dT*d[5mC]*dT*kG*kG*kA; antisense) [Compound 715582]     Yap1 mRNA       YAP1 (% UTC)        33 % UTC
10  715579 (k[5mC]*kT*kG*dT*d[5mC]*dT*dG*dG*dA*dA*dT*dA*d[5mC]*kA*k[5mC]*kA; antisense) [Compound 715579]     Yap1 mRNA       YAP1 (% UTC)       100 % UTC
11  715612 (antisense kT*kA*k[5mC]*dT*dT*dT*dA*dA*dG*d[5mC]*d[5mC]*dA*d[5mC]*kA*kT*kG) [Compound 715612]     Yap1 mRNA       YAP1 (% UTC)        77 % UTC
12  715630 (antisense kA*kA*kG*dA*dG*d[5mC]*d[5mC]*dT*dA*d[5mC]*d[5mC]*dT*dG*kA*k[5mC]*kA) [Compound 715630]     Yap1 mRNA       YAP1 (% UTC)        94 % UTC
13  715537 (kA*k[5mC]*kT*dT*dG*dG*d[5mC]*dA*d[5mC]*d[5mC]*dA*dA*dA*kA*kG*k[5mC]; antisense) [Compound 715537]     Yap1 mRNA       YAP1 (% UTC)       122 % UTC
14  715417 (kG*kA*kG*d[5mC]*dT*d[5mC]*dG*dA*dA*d[5mC]*dA*dT*dG*k[5mC]*kT*kG; antisense) [Compound 715417]     Yap1 mRNA       YAP1 (% UTC)       104 % UTC
15  715543 (kA*k[5mC]*kT*dA*d[5mC]*dT*dT*dG*dA*dA*dG*dA*dA*k[5mC]*kT*kA; antisense) [Compound 715543]     Yap1 mRNA       YAP1 (% UTC)        72 % UTC
16  715444 (antisense kT*k[5mC]*k[5mC]*d[5mC]*dT*dG*dT*dG*dG*dG*d[5mC]*dT*d[5mC]*kT*kG*kG) [Compound 715444]     Yap1 mRNA       YAP1 (% UTC)        84 % UTC
17  715624 (antisense kT*kG*k[5mC]*d[5mC]*dT*dA*dA*dG*dA*dG*dT*dA*dA*kA*kA*kA) [Compound 715624]     Yap1 mRNA       YAP1 (% UTC)       123 % UTC
18  715423 (k[5mC]*k[5mC]*kA*dT*dG*dT*dT*dG*dT*dT*dG*dT*d[5mC]*kT*kG*kA; antisense) [Compound 715423]     Yap1 mRNA       YAP1 (% UTC)        30 % UTC
19  715483 (antisense k[5mC]*kT*k[5mC]*dT*dT*dT*dG*dG*dA*dA*dA*d[5mC]*d[5mC]*kA*kT*kT) [Compound 715483]     Yap1 mRNA       YAP1 (% UTC)        15 % UTC
20  715408 (kG*k[5mC]*kG*dG*d[5mC]*dT*dT*dG*dA*dA*dG*dA*dA*kG*kG*kA; antisense) [Compound 715408]     Yap1 mRNA       YAP1 (% UTC)        60 % UTC
21  715546 (kT*kG*kA*d[5mC]*d[5mC]*dA*dA*d[5mC]*dT*dA*d[5mC]*dT*dT*kG*kA*kA; antisense) [Compound 715546]     Yap1 mRNA       YAP1 (% UTC)        59 % UTC
22  715528 (kA*kA*kA*d[5mC]*d[5mC]*dT*dG*dA*dT*d[5mC]*d[5mC]*dT*dT*kT*kG*kA; antisense) [Compound 715528]     Yap1 mRNA       YAP1 (% UTC)        98 % UTC
23  715597 (antisense k[5mC]*kT*kG*dG*dT*dT*d[5mC]*dA*dT*dG*dG*d[5mC]*dT*kG*kA*kA) [Compound 715597]     Yap1 mRNA       YAP1 (% UTC)        89 % UTC
24  715531 (kA*k[5mC]*kA*dA*d[5mC]*d[5mC]*dT*dG*dG*dT*dT*dT*dG*kT*kT*kT; antisense) [Compound 715531]     Yap1 mRNA       YAP1 (% UTC)        94 % UTC
